target: human muscarinic M1 receptor (Homo sapiens); test: Alphascreen Surefire phospho-ERK1/2 functional assay, M1; format: cell-based; details: CHO, read-out: M1 % Emax cf. ACh, CHO cells stably expressing human M1; Emax relative to ACh
Sequence (P11229 whole entry): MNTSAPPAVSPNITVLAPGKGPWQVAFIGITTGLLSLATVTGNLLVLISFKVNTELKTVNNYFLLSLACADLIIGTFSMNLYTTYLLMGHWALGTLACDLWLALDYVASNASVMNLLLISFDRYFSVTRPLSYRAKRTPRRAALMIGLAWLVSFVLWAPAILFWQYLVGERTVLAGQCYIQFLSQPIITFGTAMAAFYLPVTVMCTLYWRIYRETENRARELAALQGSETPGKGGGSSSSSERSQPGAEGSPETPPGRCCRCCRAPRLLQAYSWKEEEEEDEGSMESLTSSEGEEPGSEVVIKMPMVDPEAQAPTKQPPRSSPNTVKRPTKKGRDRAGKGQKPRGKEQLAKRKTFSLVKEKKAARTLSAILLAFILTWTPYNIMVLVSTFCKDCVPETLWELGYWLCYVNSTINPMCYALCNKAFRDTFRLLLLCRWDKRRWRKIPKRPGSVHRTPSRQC
For each of the compounds below, state its Emax.
Answers are plain numbers, in %.

In the examples that follow, each entry is paired with its recorded Emax.
>  <COMPOUND>
Cc1noc(C2CC3(CCN(C4CCC(C#N)(c5ccccc5F)CC4)C3)C2)n1 (single isomer, unassigned) [21-2 Isomer 3]

>  <READOUT>
Emax

>  <DATA VALUE>
77

$$$$
>  <COMPOUND>
CCOC(=O)N1CCCN(C2CCC(C#N)(c3ccc(Cl)cc3)CC2)CC1 (mixture of isomers) [3-6 mixture of isomers]

>  <READOUT>
Emax

>  <DATA VALUE>
105

$$$$
>  <COMPOUND>
CCOC(=O)N1CCCN(C2CCC3(CC2)C(=O)Nc2ccc(OC)nc23)CC1 (single isomer, unassigned) [4-24 isomer 1]

>  <READOUT>
Emax

>  <DATA VALUE>
75

$$$$

Need Emax for each of these compounds.
1. CCOC(=O)N[C@H]1CCN(C2CCC(C#N)(c3cccc(F)c3)CC2)C1 (single isomer, unassigned) [1-3 Isomer 2]
2. CCOC(=O)N1CCCN(C2CCC(C#N)(c3ccncc3)CC2)CC1 (mixture of isomers) [3-12 mixture of isomers]
3. CCOC(=O)N[C@@H]1CCN(C2CCC3(CC2)C(=O)Nc2ccccc23)C1 (single isomer, unassigned) [2-2 isomer 1]

[119, 116, 103]

----------
Biological target: human muscarinic M4 receptor (Homo sapiens, UniProt P08173)
Construct: expressed in transfected cells
Sequence (P08173 1-479): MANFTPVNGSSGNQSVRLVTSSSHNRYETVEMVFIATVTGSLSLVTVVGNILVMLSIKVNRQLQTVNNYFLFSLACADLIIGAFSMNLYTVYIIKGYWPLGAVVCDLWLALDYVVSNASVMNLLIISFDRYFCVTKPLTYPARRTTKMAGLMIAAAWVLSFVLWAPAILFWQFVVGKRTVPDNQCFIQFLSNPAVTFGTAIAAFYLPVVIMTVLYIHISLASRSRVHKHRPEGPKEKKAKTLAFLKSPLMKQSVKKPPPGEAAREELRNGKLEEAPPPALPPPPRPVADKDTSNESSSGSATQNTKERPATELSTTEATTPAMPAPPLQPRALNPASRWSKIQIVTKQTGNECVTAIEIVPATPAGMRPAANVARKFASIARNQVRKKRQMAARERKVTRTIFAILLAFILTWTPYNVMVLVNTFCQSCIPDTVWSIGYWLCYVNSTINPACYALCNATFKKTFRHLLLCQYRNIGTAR
Experiment: Alphascreen Surefire phospho-ERK1/2 functional assay, M4
Format: cell-based
Settings: CHO, read-out: M4 % Emax cf. ACh, CHO cells stably expressing human M4; Emax relative to ACh
Can you tell me Emax for the items I'm about to list?
Answers are plain numbers, in %.

Worked examples follow.
>  <MOLECULE>
Cc1ccc(C2(C#N)CCC(N3CCC4(CC(c5nc(C)no5)C4)C3)CC2)nc1 (single isomer, unassigned) [21-5 Isomer 1]

>  <MEASUREMENT TARGET>
human muscarinic M4 receptor (Homo sapiens, UniProt P08173)

>  <Emax [%]>
55

$$$$
>  <MOLECULE>
CCOC(=O)N1CC2(CCN(C3CCC4(CC3)C(=O)Nc3ccccc34)C2)C1 (mixture of isomers) [10-1 mixture of isomers]

>  <MEASUREMENT TARGET>
human muscarinic M4 receptor (Homo sapiens, UniProt P08173)

>  <Emax [%]>
8

$$$$

Read the next record carefully.
If you can, please state the reported Emax value of C/C=C/C(=O)N1CCCN(C2CCC3(CC2)C(=O)Nc2ccccc23)CC1 (single isomer, unassigned) [4-4 isomer 2] .
12

These measurements were taken from patent US10759751B2.
